Recorded pIC50 for the following molecules
Target: human endothelial lipase (EL) (Homo sapiens (Human), UniProt Q9Y5X9)
Sequence (Q9Y5X9 21-500): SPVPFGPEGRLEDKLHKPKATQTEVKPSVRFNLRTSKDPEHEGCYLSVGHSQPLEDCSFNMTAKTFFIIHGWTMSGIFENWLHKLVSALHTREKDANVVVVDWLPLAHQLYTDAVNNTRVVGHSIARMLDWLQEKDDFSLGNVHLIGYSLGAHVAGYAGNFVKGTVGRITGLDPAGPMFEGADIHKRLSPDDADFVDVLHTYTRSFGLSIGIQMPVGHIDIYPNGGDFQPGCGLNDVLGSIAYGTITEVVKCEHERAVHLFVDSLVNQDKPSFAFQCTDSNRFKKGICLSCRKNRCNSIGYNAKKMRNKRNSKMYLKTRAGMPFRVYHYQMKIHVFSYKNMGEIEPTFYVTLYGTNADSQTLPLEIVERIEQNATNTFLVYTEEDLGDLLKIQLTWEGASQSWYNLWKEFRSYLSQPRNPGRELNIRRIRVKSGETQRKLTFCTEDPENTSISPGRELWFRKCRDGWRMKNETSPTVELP
pIC50: −log10 of the molar value.

MOLECULE	pIC50
O=C(Cc1nnc(Cc2nc3ccc(-c4ccccc4)cc3s2)o1)N1CCOCC1	7.28
O=C(Cc1nnc(Cc2nc3ccc(-c4ccccc4)cc3s2)o1)Nc1ccccc1	8.30
N#CC1(NC(=O)Cc2nnc(Cc3nc4ccc(-c5ccc(Cl)s5)cc4s3)o2)CC1	8.40
O=C(Cc1nnc(Cc2nc3c(-c4ccccc4)cccc3s2)o1)NC1(CO)CC1	7.11
CC(C#N)NC(=O)Cc1nnc(Cc2nc3ccc(-c4ccccc4)cc3s2)o1 (stereo not shown)	8.70
COc1cc(-c2cnn(C)c2)cc2sc(Cc3nnc(CC(=O)NC4(C#N)CC4)o3)nc12	7.38
N#CCCc1nnc(Cc2nc3ccc(-c4ccccc4)cc3s2)o1	7.07
Cn1cc(-c2ccc3nc(Cc4nnc(CC(=O)NC5(C#N)CC5)o4)sc3n2)cn1	6.96
Cn1ccc(-c2ccc3nc(Cc4nnc(CC(=O)NC5(C#N)CC5)o4)sc3c2)n1	7.82
O=C(Cc1nnc(Cc2nc3ccc(-c4ccccc4)cc3s2)o1)NC1COC1	7.34
O=C(O)CCc1nnc(Cc2nc3ccc(-c4ccccc4)cc3s2)o1	6.59
N#CCNC(=O)Cc1nnc(Cc2ccc3cc(-c4ccccc4)ccc3n2)o1	6.72
NS(=O)(=O)NCc1nnc(Cc2nc3ccc(-c4ccccc4)cc3s2)o1	8.22
N#CC1(NC(=O)Cc2nnc(Cc3nc4ccc(-c5ncccn5)cc4s3)o2)CC1	7.16
O=C(O)Cc1nnc(Cc2nc3ccc(-c4ccccc4)cc3s2)o1	6.92
N#CC1(NC(=O)Cc2nnc(Cc3nc4ccc(-c5ccccc5)c(Cl)c4s3)o2)CC1	7.39
N#CCNC(=O)Cc1nnc(Cc2nc3ccc(-c4ccccc4)cc3s2)o1	7.59
Cn1cc(-c2ccc3sc(Cc4nnc(CC(=O)NC5(C#N)CC5)o4)nc3c2)cn1	8.40
N#CCNC(=O)Cc1nnc(Cc2cnc3cc(-c4ccccc4)ccc3n2)o1	5.60
